- TEST_TARGET: IdeR P39G (Saccharopolyspora erythraea DSM 40517, UniProt A0ABF7PL34 1-231, P39G)
- EXPERIMENT_DESCRIPTION: EMSA; 30 uM Co2+; EMSA: 15 mM Tris-acetate pH 7.3, 4 mM K-acetate, 10% glycerol, 17 ng/ul poly(dI-dC), 30 nM DNA, 30 uM Co2+, IdeR 15 nM-2.25 uM dimer, 20 min room temperature; 4% native gel at 4 C
- CONDITION_SUMMARY: protein: recombinant; tags: N-terminal His6 removed by TEV; Gly-His remains before Met1; chain copies: 4; label: 5' Cy5 or 5' FAM on strand 1; blunt
QUANTITY_MEASURED: Kd

Input: Suppose we examine the binder Consensus_Full (dsDNA) DNA 1: CGTACTTAGGTTAGGCTAACCTAAGTACG DNA 2: CGTACTTAGGTTAGCCTAACCTAAGTACG ; what Kd value has been reported?
Output: ~264 nM
